Biological target: Soluble guanylate cyclase (Homo sapiens) (UniProt Q02153+O75343+P33402+Q02108)
Experiment: Activation of human soluble guanylate cyclase assessed as production of cGMP in presence of nitric oxide donor, SIN-1 by LC-MS enzyme assay
Format: protein-complex assay
outcome-measure: EC10 (µM)

Solved entries (count: 4):
compound_string=Fc1ccccc1Cc1nc(-c2nc(C(F)(F)F)n[nH]2)n2cccnc12 value_reported=0.724
compound_string=Fc1ccccc1Cn1nc(-c2nc(C(F)(F)F)n[nH]2)c2cccnc21 value_reported=0.06
compound_string=Cc1ncc(Cc2nc(-c3nc(C(F)(F)F)n[nH]3)n3ccccc23)cn1 value_reported=0.366
compound_string=Fc1ccccc1Cc1nc(-c2nc(C(F)(F)F)n[nH]2)n2ccccc12 value_reported=0.47

(1) Fc1ccccc1Cc1nc(-c2nc(Cc3ccccc3)n[nH]2)n2ccccc12
(2) OCc1ccc(-c2nn(Cc3ccccc3)c3ccccc23)o1
q: Hi there! Just curious which has the higher EC10 between 1 and 2 . # answer = label of selected item
a: 2

(P) NC(=O)c1n[nH]c(-c2nc(Cc3ccccc3F)c3ccccn23)n1
(Q) Fc1ccccc1Cc1nc(-c2nc(C(F)(F)C(F)(F)F)n[nH]2)n2ccccc12
q: Kindly compare P with Q and tell me which has the lower EC10 figure. # answer = label of selected item
a: Q

(1) Cc1n[nH]c(-c2nc(Cc3ccccc3F)c3ccccn23)n1
(2) Fc1ccccc1Cc1nc(-c2nc(C(F)(F)F)n[nH]2)c2cccnn12
(3) Fc1ccccc1Cc1nc(-c2nc(C(F)(F)F)n[nH]2)c2ccccn12
(4) Fc1ccccc1Cc1nc(-c2ncn[nH]2)n2ccccc12
q: Please produce an ascending ranking of these compounds based on EC10. Reply with the item labels sorted in the order that was asked for.
a: 2, 1, 3, 4
(2: 0.224 µM, 1: 0.393 µM, 3: 0.658 µM, 4: 2.8 µM)

(a) Fc1ccccc1Cc1nc(-c2nc(C(F)F)n[nH]2)n2ccccc12
(b) CS(=O)(=O)c1n[nH]c(-c2nc(Cc3ccccc3F)c3ccccn23)n1
q: Kindly compare a with b and tell me which has the lower EC10 figure. # answer = label of selected item
a: a
(a: 0.507 µM, b: 1.34 µM)

---

Molecular target: Soluble guanylate cyclase (Homo sapiens) (UniProt Q02153+O75343+P33402+Q02108)
Assay: Activation of human soluble guanylate cyclase assessed as production of cGMP in presence of nitric oxide donor, SIN-1 by FP assay
Format: protein-complex assay
outcome-measure: EC20 (nM)

compound_string=FC(F)(F)c1n[nH]c(-c2nc(Cc3cncnc3)c3ccccn23)n1 assayed_target="Soluble guanylate cyclase (Homo sapiens) (UniProt Q02153+O75343+P33402+Q02108)" outcome_measure=EC20 value_reported=80

(P) Cc1ncc(Cn2nc(-c3nc(C(F)(F)F)n[nH]3)c3cccnc32)cn1
(Q) Fc1ccccc1Cn1nc(-c2nc(C(F)(F)F)n[nH]2)c2cccnc21
(R) Fc1ccccc1Cc1nc(-c2nc(C(F)(F)F)n[nH]2)c2ccccn12
q: Please produce an ascending ranking of these compounds based on EC20. Reply with the item labels sorted in the order that was asked for.
a: Q, P, R
(Q: 22 nM, P: 58 nM, R: 1070 nM)

---

Test: Intrinsic clearance in human liver microsomes assessed per mg of protein
Assay type: ADME, Microsome
outcome-measure: microsomal CLint (µL/min/mg)

(1) Fc1ccccc1Cc1nc(-c2nc(C(F)(F)F)n[nH]2)n2ccccc12
(2) OCc1ccc(-c2nn(Cc3ccccc3)c3ccccc23)o1
q: Hi there! Just curious which has the higher microsomal CLint between 1 and 2 . # answer = label of selected item
a: 2
